# Tested target: T1, FMDV O/Mya/98 146S antigen (Foot-and-mouth disease virus serotype …, UniProt G8JKC2, strain)
# T1 construct: also called purified virus antigen; copies: + + +
# Experiment notes: immunostaining of cells or tissue
# Study conditions: one partner purified
Parameter: binding result

In: May I ask what binding result has been recorded for F64 (antibody, V domains shown) VH: QVQLRESGPSLVKPSQTLSLTCTVSGLSLNSIGVIWVRQAPGKALEWVGGINSGGSTYYKSALKSRLSITKDNSNSQVSLSLNSVTPEDTATYYCATYVGDFWGQGLLVTVSS VL: QAVLTQPSSVSGSLGQRISITCSGSSSNIGRYNVGWYQQVPGSGLRTIIYGSSSRPSGVPDRFSGSKSGNTATLTISSLQAEDEADYFCAADDNSNSTAVFGSGTTLNVL ?
Out: binds

In: May I ask what binding result has been recorded for F45 (antibody, V domains shown) VH: QVQLRESGPSLVKPSQILSLTCTVSGFSLSSNGAVWVRQAPGKTLEWIGGISVDGSVRYNPALNSRLSITKDNSKSQVSLSMTSATPEDTATYFCVRCFSGYSPNSVCSTADYVDAWGQRLLVTVSS VL: QAVVNQPSSVSGSLGQRVFITCSGSSSNVGNGYVIWYQLIPGSGPTTLIYGDASRPSGVPDRFSGSRSGNTATLTIISLQAEDEEDYFCASAEDSSTNAVFGSGTTLTVL ?
Out: binds

In: May I ask what binding result has been recorded for F4 (antibody, V domains shown) VH: QVQLRESGPSLVKPSQTLSLTCTVSGFSLSSSGVVWVRQAPGKALEWVGSLSSGGLTSRNPALKSRISITKDNSKSQVSLSMSSVTPEDTATYYCAKCGGFYGSTCNGYGSSYDFWGRGLLVTVSS VL: QAVLTQPSSVSGSLGQRVSITCSGSSSNVGNGYVSWYQLIPGSAPRTLIYGDTSRASGVPDRFSGSRSGNTATLTISSLQAEDEADYFCASAEDSSSNAVFGSGTTLTVL ?
Out: binds
